- SYSTEM_UNDER_TEST: RFC clamp loader (WT; Rfc1 N-terminal truncation) (Saccharomyces cerevisiae, UniProt P38630;P40348;P38629;P40339;P38251 284-861;1-353;1-340;1-323;1-354)
- METHOD_SUMMARY: fluorescence anisotropy; 0.5 mM ATPgS; no PCNA; 20 nM p/t DNA-RhX, 0.5 mM ATPgS, varied RFC, with or without 2 uM PCNA; buffer, salt, pH and temperature not in the material (Section 3.1 text missing)
- RUN_PARAMETERS: protein: recombinant; tags: Rfc1 N-terminal 6xHis and kinase recognition motif replacing residues 1-283; copies: 1;1;1;1;1; label: X-rhodamine (RhX) on 5' end of template; primer-template: 26 bp duplex with 34 nt 5' template overhang
QUANTITY_MEASURED: Kd (nM)
Provide only the numeric value, understood in nM.

Ask: If you can, please state the reported Kd value of p/t DNA-RhX (26/60-mer primed template) (dsDNA, 5' C6 amino linker on the 60-mer template) DNA 1: TTCAGGTCAGAAGGGTTCTATCTCTGTTGGCCAGAATGTCCCTTTTATTACTGGTCGTGT DNA 2: ACACGACCAGTAATAAAAGGGACATT .
Result: 91
